meta.source: PubChem BioAssay (NCI)

tested on: OVCAR-3 ovarian; experiment: NCI tumour cell line growth inhibition, 48 h
Where a SMILES comes first, the peptide text is derived from it.
Below, each entry is listed alongside its reported TGI.
RECORDED ENDPOINT: TGI

MOLECULE	EXPERIMENTAL VALUE
O=C(NCCNCCNCCNC(=O)c1cc(-c2ccccc2)nc2ccccc12)c1cc(-c2ccccc2)nc2ccccc12	8.11 µM
O=C(O)c1ccc(NCc2nc3cc4ccccc4cc3[nH]2)cc1	> 100 µM
C/C1=C\[C@H](C)C[C@H](C)OC(=O)C[C@H](c2ccc(O)cc2)NC(=O)[C@H](Cc2ccc(O)c(Br)c2)N(C)C(=O)[C@H](C)NC(=O)[C@@H](C)C1	> 25 µM
CCN(CC)CCOC(=O)CCN1CC2CCC(CC2)C1	> 100 µM
Cc1cc(=O)oc2c1cc(OCC(=O)OCCN1CCCCC1)c1occ(C)c12	> 100 µM
CCN(CC)CCn1c2cc3c(cc2c(=O)c2cccnc21)OCO3	> 10 µM
O=C(Nc1nnc(-c2c(Cl)c(Cl)c(Cl)c(Cl)c2-c2nc3cc(C(=O)c4ccccc4)ccc3[nH]2)o1)c1ccccc1	44.7 µM
CCOC(=O)c1ccc(Nc2sc(C(=O)c3cccc([N+](=O)[O-])c3)c(N)c2C#N)cc1	0.0617 µM
NC1=CN(Cc2ccccc2)C2=N/C(=C\c3ccccc3)C(=O)N12	> 100 µM
Cc1ccsc1C(=O)C(CC(=O)c1cccs1)c1ccsc1 (stereo not drawn)	> 100 µM
CN(C)C(=O)c1cc2cnc(Nc3ccc(-c4csc5c(=O)cc(N6CCNCC6)oc45)cc3)nc2n1C1CCCC1	2.72 µM
CC[C@H](C)C1=C(O)[N@+]2([O-])Oc3ccc(-c4c(O)c(O)c(-c5ccc(OC(C)=O)cc5)c(OC(C)=O)c4OC(C)=O)cc3O[C@]2([C@@H](C)CC)C(=O)N1O	> 50 µM
CCOC(=O)[C@H]1Nc2ccc(Cl)cc2[C@H]2OCC[C@@H]12	> 100 µM
CC(=O)NC(CS)C(=O)NC(CO)C(=O)NC(CO)C(=O)NC(Cc1c[nH]c2ccccc12)C(=O)N1CCCC1C(=O)NC(CO)C(=O)NC(Cc1c[nH]c2ccccc12)C(=O)NC(Cc1c[nH]cn1)C(=O)NC(CO)C(=O)NC(Cc1c[nH]c2ccccc12)C(=O)NCC(=O)NCC(=O)NC(CC(=O)O)C(=O)NC(CCC(N)=O)C(=O)NC(CCCCN)C(=O)NC(Cc1ccccc1)C(=O)NC(CCCNC(=N)N)C(=O)NC(CCCCN)C(N)=O (stereo not drawn) (Ac-CSSWPSWHSWGGDQKFRK-NH2; configuration not given here)	> 25 µM
CN(C)CC/C(=N\Nc1ccc(Cl)c(Cl)c1)c1ccccc1	6.45 µM
CCOC(=O)C(Cc1ccccc1)NC(=O)OC(C)(C)C (stereo not drawn)	> 100 µM
CC1=C(C#N)C2C(=C(N)Oc3ccccc32)C(N)=N1 (stereo not drawn)	> 100 µM
CC1=C(C(=O)CC(=O)C(=O)Nc2ccccc2)Sc2ccccc2N1	> 100 µM
NC(CSc1nc2ccccn2c1[N+](=O)[O-])C(=O)O (stereo not drawn)	> 100 µM
O=C(/C=C\c1ccccc1)Oc1ccc(/C=C2\CCCCC2=O)cc1	> 100 µM
O=C(O)C1=NNC(C(=O)O)=NN1	> 100 µM
Nc1nc(Cl)cc(NCC2(CO)CCC(O)C2)n1 (stereo not drawn)	> 100 µM
COc1ccc2c(c1)CC[C@@H]1[C@@H]2CC[C@]2(C)C(=O)/C(=C/c3ccncc3)C[C@@H]12	44.2 µM
NNc1ccccc1Cl	> 100 µM
COc1ccc(-c2cc(-c3cn[nH]c3-c3ccccn3)ccn2)cc1	> 25 µM
Cc1ccccc1-c1c(N)nc(N)nc1C(=O)Nc1nccs1	> 100 µM
Cc1ccc(C2(O)CC(c3ccc([N+](=O)[O-])o3)=NN2C(=O)COc2ccccc2Cl)cc1 (stereo not drawn)	19.9 µM
COc1cccc(-n2ncc3c(N/N=C/c4ccc(S(C)(=O)=O)cc4)ncnc32)c1	> 23 µM
Nc1ncnc2c(C3OC(CO)C(O)C3O)scc12 (stereo not drawn)	0.0287 µM
CC1(C)CC(OCCCC[P+](c2ccccc2)(c2ccccc2)c2ccccc2)CC(C)(C)N1O	0.871 µM
O=c1cc(O)c2ccccc2o1	> 100 µM
OCCNc1ncnc2c1ncn2C1OC(CO)C(O)C1O (stereo not drawn)	> 100 µM
COCOCC1CCCN1CN1CCC[C@H]1COCOC (stereo partly drawn)	> 100 µM
CC(C)=C[C@@H]1C[C@H](C)c2c(O)cc(C)c3c2C1=C(C)C(=O)C3=O	32.1 µM
CC#Cc1cc2c(cc1O)CC[C@@H]1[C@@H]2CC[C@]2(C)[C@@H](O)CC[C@@H]12	3.26 µM
CC(CO)(CO)Nc1ncnc2ccccc12	> 100 µM
COc1cc2nc(-c3ccccc3F)[nH]c(=O)c2cc1OC	> 100 µM
COc1ccc([C@H]2C=C(c3cc(F)c(Cl)cc3Cl)NC(=S)N2)cc1	> 100 µM
